B1: library; a variant is named by its letters at N, in order (parent)
chain: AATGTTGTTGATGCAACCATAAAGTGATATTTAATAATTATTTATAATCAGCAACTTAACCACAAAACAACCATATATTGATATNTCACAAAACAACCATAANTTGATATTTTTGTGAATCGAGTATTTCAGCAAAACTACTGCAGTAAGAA

# Variants of: B1
# test-protocol: relative integration efficiency (T-RL orientation) vs wild-type transposon end (log2 (normalized fold change)); transposon end mutated: left end; higher = more efficient transposition
# experimental-parameters: with VchCAST RNA-guided transposition machinery (E. coli BL21(DE3) host, lacZ target)
Would you please tag the item Criterion met when its relative integration efficiency (log2) is -0.5 or above, and Criterion not met when it is below?

Example entries begin here.
>  <mutation-name>
CG A119T

>  <class-name>
Criterion met

$$$$
>  <mutation-name>
TG A16C G24T T30A A70C T76A T84A C87A

>  <class-name>
Criterion met

$$$$
>  <mutation-name>
TG T76A T78G C87A

>  <class-name>
Criterion met

$$$$
>  <mutation-name>
CG A59C C60A

>  <class-name>
Criterion met

$$$$
>  <mutation-name>
CG G7T

>  <class-name>
Criterion not met

$$$$
>  <mutation-name>
CG A93C C94A A95C A96C

>  <class-name>
Criterion not met

$$$$

Exercise: Is reported relative integration efficiency (log2) greater than or equal to -0.5 here: CG A64T A65T A66T A67T
Solution: Criterion met

Exercise: Is reported relative integration efficiency (log2) greater than or equal to -0.5 here: CG C98G A99T
Solution: Criterion not met

Exercise: Is reported relative integration efficiency (log2) greater than or equal to -0.5 here: CG T105G
Solution: Criterion not met

Exercise: Is reported relative integration efficiency (log2) greater than or equal to -0.5 here: CG T78A T79A
Solution: Criterion met

Exercise: Is reported relative integration efficiency (log2) greater than or equal to -0.5 here: TA T76A T78A T84A C87A A96C T110A T113A
Solution: Criterion met

Exercise: Is reported relative integration efficiency (log2) greater than or equal to -0.5 here: CG G106A
Solution: Criterion not met

Hello, the source for this data is the supplement of paper PMC10201428, in case you need it.
